Test system: CP335
test name: qHTS profiling for inhibitors of Plasmodium falciparum proliferation (AID 504749); also: nearly all actives have a fitted effect of over 60% in size
condition label: P. falciparum in erythrocytes, SYBR Green DNA, 72 h; series mostly up to 28.7 µM
Records with an inconclusive call do not appear. Activity calls are given as the source filed them. Calls follow the shape of the dose curve; as a rule, active = well fitted inhibition curve with a large enough effect; inconclusive = small, poorly fitted or top-dose-only effect; inactive = flat fitted curve, though single readings scatter.
Can you answer with just one of these options? active, inactive

Ask: Could you check what this test reported for CN(C)c1ccc(C(=C2C=CC(=[N+](C)C)C=C2)c2ccc(N(C)C)cc2)cc1 ?
Result: active

Ask: Could you check what this test reported for COc1ccc(-c2ccc3cc(C(=O)O)ccc3c2)cc1C12CC3CC(CC(C3)C1)C2 ?
Result: inactive

Ask: Could you check what this test reported for Nc1nc(N)nc(-c2cc(Cl)ccc2Cl)n1 ?
Result: inactive

Ask: Could you check what this test reported for COc1cc([C@@H]2c3cc4c(cc3[C@H](O)[C@H]3COC(=O)[C@H]23)OCO4)cc(OC)c1OC ?
Result: active

Ask: Could you check what this test reported for CCOCC(O)COc1ccc(NC(=O)CC[S+](C)C)cc1 (centres undefined) ?
Result: inactive

Ask: Could you check what this test reported for Cn1nnc2c(C(N)=O)ncn2c1=O ?
Result: inactive

Ask: Could you check what this test reported for COC(=O)Nc1nc2ccc(Sc3ccccc3)cc2[nH]1 ?
Result: inactive

Ask: Could you check what this test reported for C1CCC(C(CC2CCCCN2)C2CCCCC2)CC1 (centres undefined) ?
Result: active

Ask: Could you check what this test reported for COc1cc(NCc2ccc3nc(N)nc(N)c3c2C)cc(OC)c1OC ?
Result: active
